procedure.details: Cytotoxicity, CellTiter Glo 2.0
Assay type: cell-based
test.settings: human; panel B; HeLa; 10 µM; 24 h; ± SD; read-out: Cell line viability (%) after treatment with 10 µM compound
value.type: viability at 24 h, 10 µM (%)
Express it in %; write the number only.

| molecule | value.type | reported.value |
| --- | --- | --- |
| CC[C@H](C)[C@@H](C(=O)O[C@@H](CC(C)C)C(=O)N[C@@H](CC(C)C)C(=O)N[C@@H](C)/C=C/C(=O)N1C(=O)C=C(OC)[C@@H]1C)N(C)C [gallinamide A] | viability at 24 h, 10 µM | 77 |

For the molecule shown here, COC1=CC(=O)N(C(=O)/C=C/[C@H](C)NC(=O)[C@H](CC(C)C)NC(=O)[C@H](CC(C)C)OC(=O)[C@H](Cc2ccccc2)N(C)C)[C@H]1Cc1ccccc1 , give the reported viability at 24 h, 10 µM.
45

All figures here come from paper PMC11184554.
